// provenance: PubChem BioAssay

molecular target: NADPH oxidase 4 (Homo sapiens) (UniProt Q9NPH5); assay: NOX4-dependent H2O2 signal modulators, primary screen, NOX inhibitor project, cell-based, HEK293-NOX4, tetracycline-induced, Amplex Red fluorescence (AID 1160); conditions: 45 min, higher = more signal, called active from +8 up or from −8 down
Sequence (Q9NPH5 whole entry, looked up): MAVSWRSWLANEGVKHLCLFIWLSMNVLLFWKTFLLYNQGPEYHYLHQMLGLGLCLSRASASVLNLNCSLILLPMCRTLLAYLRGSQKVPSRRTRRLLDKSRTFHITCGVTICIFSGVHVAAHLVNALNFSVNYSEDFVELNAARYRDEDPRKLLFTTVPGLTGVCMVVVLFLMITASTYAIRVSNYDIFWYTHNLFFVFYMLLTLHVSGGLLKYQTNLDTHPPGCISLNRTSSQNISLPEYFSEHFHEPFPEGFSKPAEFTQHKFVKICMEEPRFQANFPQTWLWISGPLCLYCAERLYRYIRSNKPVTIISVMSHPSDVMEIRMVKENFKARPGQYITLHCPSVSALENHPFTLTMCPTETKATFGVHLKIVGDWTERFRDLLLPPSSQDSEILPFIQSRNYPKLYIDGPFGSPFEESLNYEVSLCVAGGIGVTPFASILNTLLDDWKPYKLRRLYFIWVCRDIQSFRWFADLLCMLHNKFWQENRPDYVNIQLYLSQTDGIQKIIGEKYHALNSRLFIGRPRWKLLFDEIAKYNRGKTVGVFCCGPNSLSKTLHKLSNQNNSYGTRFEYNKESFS
So basically: z-score at 0.3 or higher? That is y. Lower than 0.3? That is n.

Past entries and their recorded results:
[
  {
    "compound": "CCN1C(=O)[C@H]2[C@H]3[C@H](O)[C@H](O)CC(=NOCC=C(C)CCC=C(C)C)[C@@H]3CC[C@H]2C1=O",
    "groupLabel": "n"
  },
  {
    "compound": "CC(C)[C@H](NC(=O)OC(C)(C)C)[C@@H](O)CC(=O)C(C)(C)C",
    "groupLabel": "y"
  },
  {
    "compound": "O=C1C=C[C@@H](O)[C@@H]2[C@@H]3C(=O)N(Cc4ccccc4)C(=O)[C@@H]3CC[C@@H]12",
    "groupLabel": "y"
  },
  {
    "compound": "C[C@@H](c1ccccc1)N1C(=O)[C@H]2[C@H]3[C@H](O)[C@H](O)CC(=NOCc4ccccc4)[C@@H]3CC[C@H]2C1=O",
    "groupLabel": "n"
  },
  {
    "compound": "CCOC(=O)[C@H](CC(C)C)NC(=O)CCC1CC(OC(=O)NCc2ccc3c(c2)OCO3)CC2(CCCC(COC(=O)NCCOc3ccccc3)O2)O1 (some centres undefined)",
    "groupLabel": "n"
  }
]

Prompt line: Given the entry COC(=O)C1=C(C)N(Cc2ccccc2)C2=C3C(=O)OCC[C@@H]3[C@@](O)(C(=O)OC)C(=O)N2[C@@H]1c1ccccc1 , answer whether its z-score meets or surpasses 0.3.
Response line: n

Prompt line: Could you tell me if the measured z-score of CCOC(=O)CCN1C(=O)[C@H]2[C@H]3[C@H](O)[C@H](O)CC(=NOCC(C)C)[C@@H]3CC[C@H]2C1=O reaches 0.3 or more?
Response line: y

Prompt line: Reported z-score at or above 0.3? CC(CCN1CCCCc2nc(C)c(C)cc21)=NO[C@H](C)c1cn([C@@H]2COC[C@H]2O)nn1
Response line: n

Prompt line: Check this compound for z-score at or above 0.3: CC(=O)OC[C@H]1O[C@@H](ON=C(C)CCC(=O)OC[C@H]2O[C@H](C#Cc3ccccc3)C=C[C@@H]2Oc2ccc(C)cc2)[C@H](OC(C)=O)[C@@H](OC(C)=O)[C@@H]1OC(C)=O
Response line: y

###

tested on: Wnt5a (protein binding on small-molecule microarray); experiment: Wnt5a binders on small-molecule microarray, primary screen, biophysical, 635/667 nm fluorescence (AID 1142); conditions: 635 nm fluorescence, higher = more signal;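 note: fluorescence read at 667 nm with signal to noise per printed feature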
Known composite z-score of a selection of compounds

[
  {
    "compound": "C=C(C)C(=O)OC[C@H]1CN2[C@@H](CC[C@@H](C)[C@@H]2c2ccc(Br)cc2)C(=O)O1",
    "composite z-score": -0.219
  },
  {
    "compound": "CO[C@@H]1COC(=O)CC=C[C@H](C)[C@H](OC)COC(=O)[C@@H]2CCCN2C(=O)CC=C[C@H]1C",
    "composite z-score": 0.0408
  },
  {
    "compound": "CC(C)CON=C1C[C@@H](O)[C@@H](O)[C@@H]2[C@@H]3C(=O)N(c4ccc(F)cc4F)C(=O)[C@@H]3CC[C@@H]12",
    "composite z-score": -0.0608
  },
  {
    "compound": "COc1ccc(O[C@H]2C=C[C@@H](c3ccccc3)O[C@@H]2CON=C(C)CCN2CCCc3nc(C)c(C)cc32)cc1",
    "composite z-score": 0.0474
  },
  {
    "compound": "C[C@H]1CC[C@@H](C(=O)O)N[C@@H]1c1ccc(C#Cc2ccccc2)cc1",
    "composite z-score": 0.177
  },
  {
    "compound": "O=C(NN=C1C[C@@H](O)[C@@H](O)[C@@H]2[C@@H]3C(=O)N(Cc4ccc5c(c4)OCO5)C(=O)[C@@H]3CC[C@@H]12)OCc1ccccc1",
    "composite z-score": -0.0565
  },
  {
    "compound": "O=C(NN=C1C[C@@H](O)[C@@H](O)[C@@H]2[C@@H]3C(=O)N(c4ccc(F)cc4F)C(=O)[C@@H]3CC[C@H]12)OCc1ccccc1",
    "composite z-score": -0.0874
  },
  {
    "compound": "CCc1cc2c(nc1CC)CCN(CCC(C)=NOC[C@@H](C)[C@H](OCc1ccccc1)C(C)C)C2",
    "composite z-score": -0.608
  }
]

The measured composite z-score associated with COC(=O)[C@H](C)NC(=O)CCC1CC(OC(=O)NCc2ccc3c(c2)OCO3)CC2(CCCC(COC(=O)NCCCN3CCCC3=O)O2)O1 (stereo not given in full) reads 0.151

# composite z-score (compound: CON=C(C)CCN1CCCc2nc(C)c(C)cc21 ) is 0.377
